Answer each item with its documented inhibition.
- target.or.system: Sodium channel protein type 9 subunit alpha (Homo sapiens)
- Sequence (Q15858 whole entry, looked up): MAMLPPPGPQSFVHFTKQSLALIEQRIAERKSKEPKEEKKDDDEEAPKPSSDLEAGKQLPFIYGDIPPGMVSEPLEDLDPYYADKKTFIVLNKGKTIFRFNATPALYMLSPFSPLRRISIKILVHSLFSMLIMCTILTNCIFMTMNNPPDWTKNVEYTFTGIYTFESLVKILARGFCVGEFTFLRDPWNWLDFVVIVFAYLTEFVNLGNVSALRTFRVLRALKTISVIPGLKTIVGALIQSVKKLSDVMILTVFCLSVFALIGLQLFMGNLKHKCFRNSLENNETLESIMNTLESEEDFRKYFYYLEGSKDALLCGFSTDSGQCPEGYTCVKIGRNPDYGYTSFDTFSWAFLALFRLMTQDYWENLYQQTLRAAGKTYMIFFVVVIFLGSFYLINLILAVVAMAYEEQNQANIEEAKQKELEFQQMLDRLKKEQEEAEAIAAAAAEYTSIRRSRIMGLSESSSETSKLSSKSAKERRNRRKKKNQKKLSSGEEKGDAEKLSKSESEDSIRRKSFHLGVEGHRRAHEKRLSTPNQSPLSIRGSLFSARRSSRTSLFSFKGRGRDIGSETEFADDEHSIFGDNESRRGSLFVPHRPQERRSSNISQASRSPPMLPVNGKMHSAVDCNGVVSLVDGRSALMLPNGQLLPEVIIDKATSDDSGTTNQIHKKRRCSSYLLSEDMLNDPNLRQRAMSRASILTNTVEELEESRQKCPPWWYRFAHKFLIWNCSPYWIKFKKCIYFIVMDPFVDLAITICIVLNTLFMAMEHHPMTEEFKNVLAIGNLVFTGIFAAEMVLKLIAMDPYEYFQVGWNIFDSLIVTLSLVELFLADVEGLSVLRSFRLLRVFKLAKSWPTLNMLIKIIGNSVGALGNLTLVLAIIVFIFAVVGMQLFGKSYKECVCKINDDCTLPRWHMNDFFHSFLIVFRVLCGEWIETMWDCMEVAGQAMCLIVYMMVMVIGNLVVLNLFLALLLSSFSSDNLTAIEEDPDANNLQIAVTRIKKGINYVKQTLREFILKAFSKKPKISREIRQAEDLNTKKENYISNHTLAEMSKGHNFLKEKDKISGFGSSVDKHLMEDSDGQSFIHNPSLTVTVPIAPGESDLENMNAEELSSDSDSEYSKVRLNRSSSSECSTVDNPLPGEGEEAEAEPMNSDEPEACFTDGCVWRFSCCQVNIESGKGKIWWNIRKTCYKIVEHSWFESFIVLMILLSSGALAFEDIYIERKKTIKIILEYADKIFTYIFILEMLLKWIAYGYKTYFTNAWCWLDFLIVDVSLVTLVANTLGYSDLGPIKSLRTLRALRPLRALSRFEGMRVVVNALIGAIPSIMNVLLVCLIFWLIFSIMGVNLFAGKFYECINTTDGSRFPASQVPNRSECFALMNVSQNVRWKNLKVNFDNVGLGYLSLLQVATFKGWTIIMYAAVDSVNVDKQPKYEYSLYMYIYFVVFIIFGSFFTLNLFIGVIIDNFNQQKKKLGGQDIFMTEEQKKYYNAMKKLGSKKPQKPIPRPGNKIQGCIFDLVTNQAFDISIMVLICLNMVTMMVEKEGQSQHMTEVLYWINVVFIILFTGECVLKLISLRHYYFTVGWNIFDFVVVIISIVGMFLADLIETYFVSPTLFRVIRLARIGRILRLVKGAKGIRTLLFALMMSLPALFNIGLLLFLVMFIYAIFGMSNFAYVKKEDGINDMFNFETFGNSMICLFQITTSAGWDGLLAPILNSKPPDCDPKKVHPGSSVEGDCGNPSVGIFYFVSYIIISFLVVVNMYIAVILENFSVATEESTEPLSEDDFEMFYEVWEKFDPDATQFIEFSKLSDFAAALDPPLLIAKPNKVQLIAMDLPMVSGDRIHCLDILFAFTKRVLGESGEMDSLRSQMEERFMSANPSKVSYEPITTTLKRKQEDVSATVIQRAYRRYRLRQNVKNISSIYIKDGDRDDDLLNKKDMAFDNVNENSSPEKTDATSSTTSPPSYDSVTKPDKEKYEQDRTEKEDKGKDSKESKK
- procedure.summary: Inhibition of human Nav1.7 expressed in HEK293 cells at 10 uM measured for 48 hrs by whole-cell patch clamp electrophysiology assay
- Format: cell-based
Numeric answer only, unit % assumed.

Lookup: Please give measured inhibition of the following entry: O=C(NS(=O)(=O)C1CC1)c1ccc(OC2CCC3(CCNCC3)C2)cc1 (centres undefined)
Found: 71.4

Lookup: Respond only with inhibition recorded for CCc1ccc(CN2CCC3(CCC(CCOc4cc(F)c(C(=O)NS(=O)(=O)C5CC5)cc4Cl)C3)CC2)cc1 (centres undefined)
Found: 93.9

Lookup: Fill in reported inhibition for this entry: Cc1cc(C(=O)NS(=O)(=O)C2CC2)c(F)cc1OCCC1CCC2(CCN(Cc3ccccc3)CC2)C1 (centres undefined)
Found: 101

Lookup: Provide inhibition value for the following compound: O=C(NS(=O)(=O)C1CC1)c1ccc(OCCC2CCC3(CCNCC3)C2)cc1 (centres undefined)
Found: 8.4

Lookup: Given the compound O=C(NS(=O)(=O)C1CC1)c1cc(Cl)c(OCCC2CCC3(CCN(Cc4ccsc4)CC3)C2)cc1F (centres undefined) , write its reported inhibition.
Found: 95.9

Lookup: Determine its reported inhibition: O=C(NS(=O)(=O)C1CC1)c1ccc(OCC2CCC3(CCNCC3)C2)cc1 (centres undefined)
Found: 0.2

Lookup: # return recorded inhibition for input O=C(NS(=O)(=O)C1CC1)c1ccc(OC2CCC3(CCN(Cc4ccccc4)CC3)C2)cc1 (centres undefined)
Found: 45.7

Lookup: Determine its reported inhibition: O=C(NS(=O)(=O)C1CC1)c1ccc(OC2CC3(CCNCC3)C2)cc1
Found: 15.4

Lookup: Please report the measured inhibition for O=C(NS(=O)(=O)C1CC1)c1ccc(OCCC2CCC3(CCN(Cc4ccccc4)CC3)C2)cc1 (centres undefined)
Found: 92

Lookup: Name the recorded inhibition of the compound listed here: O=C(NS(=O)(=O)C1CC1)c1cc(Cl)c(OCCC2CCC3(CCN(Cc4ccco4)CC3)C2)cc1F (centres undefined)
Found: 97.6

Lookup: Return inhibition (reported value) for this compound: O=C(NS(=O)(=O)C1CC1)c1cc(Cl)c(OCCC2CCC3(CCN(Cc4cc(Cl)cc(Cl)c4)CC3)C2)cc1F (centres undefined)
Found: 77.2

Lookup: Give the measured inhibition for CCN1CCC2(CCC(COc3ccc(C(=O)NS(=O)(=O)C4CC4)cc3)C2)CC1 (centres undefined)
Found: 1.4

Lookup: Name the recorded inhibition of the item O=C(NS(=O)(=O)C1CC1)c1cc(Cl)c(OCCC2CCC3(CCN(Cc4ccccc4)CC3)C2)cc1F (centres undefined) in your answer.
Found: 102

Lookup: Give me measured inhibition, please, for this compound: O=C(NS(=O)(=O)C1CC1)c1cc(F)c(OCCC2CCC3(CCN(Cc4ccccc4)CC3)C2)cc1F (centres undefined)
Found: 99.7

Lookup: State its inhibition: O=C(NS(=O)(=O)C1CC1)c1ccc(OC2CCC3(CC2)CCN(Cc2ccccc2)CC3)cc1
Found: 13.7

Lookup: Output inhibition of COc1ccc(CN2CCC3(CCC(CCOc4cc(F)c(C(=O)NS(=O)(=O)C5CC5)cc4Cl)C3)CC2)cc1 (centres undefined)
Found: 89.3

Lookup: Quick one: give measured inhibition for O=C(NS(=O)(=O)C1CC1)c1cc(Cl)c(OCCC2CCC3(CCN(CC4CCCCC4)CC3)C2)cc1F (centres undefined)
Found: 65.5

Lookup: Supply inhibition value. Item: O=C(NS(=O)(=O)C1CC1)c1ccc(OCC2CCC3(CCN(Cc4ccccc4)CC3)C2)cc1 (centres undefined)
Found: 57.4

Lookup: Tell me inhibition reported for C[C@H](NCc1ccc(OCc2ccccc2F)cc1)C(N)=O [RALFINAMIDE]
Found: 30.9

Lookup: Provide only the value of recorded inhibition for CCN1CCC2(CC1)CC(Oc1ccc(C(=O)NS(=O)(=O)C3CC3)cc1)C2
Found: 14.3

Lookup: Query inhibition for O=C(NS(=O)(=O)C1CC1)c1ccc(OC2CCC3(CCNCC3)CC2)cc1
Found: 11.2

Lookup: Give the value of inhibition reported for the following: O=C(NS(=O)(=O)C1CC1)c1cc(Cl)c(OCCC2CCC3(CCN(Cc4ccc(Cl)cc4)CC3)C2)cc1F (centres undefined)
Found: 87.2

Lookup: State its inhibition for this compound: O=C(NS(=O)(=O)C1CC1)c1cc(Cl)c(OCCC2CCC3(CCN(CCCc4ccccc4)CC3)C2)cc1F (centres undefined)
Found: 72.8

Lookup: Output measured inhibition for this item: CCN1CCC2(CCC(CCOc3ccc(C(=O)NS(=O)(=O)C4CC4)cc3)C2)CC1 (centres undefined)
Found: 24.2

Lookup: Specify measured inhibition for O=C(NS(=O)(=O)C1CC1)c1cc(Cl)c(OCCC2CCC3(CCN(CCc4ccccc4)CC3)C2)cc1F (centres undefined) .
Found: 75.1

Lookup: State its inhibition: CCN1CCC2(CCC(Oc3ccc(C(=O)NS(=O)(=O)C4CC4)cc3)C2)CC1 (centres undefined)
Found: 16.8

Lookup: Please report inhibition for the following compound: CCN1CCC2(CCC(Oc3ccc(C(=O)NS(=O)(=O)C4CC4)cc3)CC2)CC1
Found: 22.9

Lookup: Note down inhibition recorded for O=C(NS(=O)(=O)C1CC1)c1ccc(OC2CC3(CCN(Cc4ccccc4)CC3)C2)cc1
Found: 21.5

Lookup: Quickly give me recorded inhibition for O=C(NS(=O)(=O)C1CC1)c1cc(Cl)c(OCCC2CCC3(CCN(Cc4cccc(C(F)(F)F)c4)CC3)C2)cc1F (centres undefined)
Found: 55.9

Origin of the recorded values: ChEMBL document CHEMBL5257116
